- Tested target: Bcl-xL, recombinant protein (human) (UniProt Q07817)
- Sequence (Q07817 whole entry): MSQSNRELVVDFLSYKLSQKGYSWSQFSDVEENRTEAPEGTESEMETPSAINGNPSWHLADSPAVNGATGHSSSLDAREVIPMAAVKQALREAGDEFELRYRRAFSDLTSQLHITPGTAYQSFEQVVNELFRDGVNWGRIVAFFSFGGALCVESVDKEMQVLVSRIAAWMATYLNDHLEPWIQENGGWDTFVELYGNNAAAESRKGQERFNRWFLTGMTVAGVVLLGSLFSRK
- Assay name: ITC; peptide titrated into Bcl-xL in the cell; 30 °C, 50 mM ammonium bicarbonate pH 9; ITC200 calorimeter
Measurement name: pKd
Notebook: values listed as pKd are -log10 of the concentration (mol/L).

Using the record for DEMFSDIYKIREIADGLCLEV [TCTP_(11–31) peptide] , state its measured pKd. 4.92
